# test-target: TNFα (Homo sapiens, UniProt P01375)
# Sequence (P01375 77-233 limits assumed): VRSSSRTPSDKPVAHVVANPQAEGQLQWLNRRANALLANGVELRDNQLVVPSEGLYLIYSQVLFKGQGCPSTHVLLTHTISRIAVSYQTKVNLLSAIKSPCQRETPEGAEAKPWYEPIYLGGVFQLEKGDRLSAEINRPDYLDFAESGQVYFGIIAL
# test-name: HEK-Blue hTNFα reporter assay
# Type: cell-based
# Set-up: purchased R&D biosystem (R&D Systems) 210-TA-020/CF
# experimental-conditions: HEK-Blue hTNFα reporter cells, SEAP readout; read-out: IC50 Range
# From the text: Stimulation of HEK293 cells by TNFα leads to activation of the NF-κB pathway. The potency of compounds was examined in HEK-Blue™ hTNFα reporter cells (Invivogen, Cat #hkb-tnfdmyd). […] Levels of SEAP in the supernatant can be easily determined using QUANTI-Blue™ Solution (Invivogen, cat #rep-qbs) by reading the OD at 620-655 nm. […]
Would you mind telling me the reported IC50 of each entry?

Give TNFα (Homo sapiens, UniProt P01375) IC50 for NC1(c2ccc(-c3ccn4nc5c(c4n3)[C@@H]3C[C@H]5NC(=O)c4cccc(OC(F)F)c43)cn2)CCC1
25 to 100 nM

Give TNFα (Homo sapiens, UniProt P01375) IC50 for CN1C(=O)c2cccc(OC(F)F)c2[C@H]2C[C@@H]1c1nn3cc(F)c(-c4cnc(C5(O)COC5)nc4)cc3c12
< 25 nM

Give TNFα (Homo sapiens, UniProt P01375) IC50 for C[C@]1(C#N)C[C@](N)(c2ncc(-c3ccn4nc5c(c4c3)[C@@H]3C[C@H]5NC(=O)c4cccc(OC(F)F)c43)cc2F)C1
< 25 nM

Give TNFα (Homo sapiens, UniProt P01375) IC50 for [2H]C([2H])([2H])N1C(=O)c2cccc(OC(F)F)c2[C@H]2C[C@@H]1c1nn3cc(F)c(-c4cnc(C(C)(C)N)nc4)nc3c12
< 25 nM

Give TNFα (Homo sapiens, UniProt P01375) IC50 for CN1C(=O)c2cccc(OC(F)F)c2[C@H]2C[C@@H]1c1nn3ccc(-c4cnc([C@]5(O)CC[C@@H](O)C5)nc4)cc3c12
< 25 nM

Give TNFα (Homo sapiens, UniProt P01375) IC50 for CN1C(=O)c2cccc(OC(F)F)c2[C@H]2C[C@@H]1c1nn3ccc(-c4ncc([C@@H](O)[C@H]5CCO5)cn4)cc3c12
< 25 nM

* * *

# test-target: TNFα (Homo sapiens)
# test-name: HEK-Blue hTNFα reporter assay
# Format: cell-based
# Parameters: purchased R&D biosystem (R&D Systems) 210-TA-020/CF
# experimental-conditions: HEK-Blue hTNFα reporter cells; read-out: TNFα reporter, Emax
measure-name: Emax (%)
Field format: number, assumed %, no unit text.

// lookup Emax for CN1C(=O)c2cccc(OC(F)F)c2[C@H]2C[C@@H]1c1nn3ccc(-c4ccc(P(C)(C)=O)nc4)cc3c12 [Example 20]
89

// lookup Emax for CN1C(=O)c2cccc(OC(F)F)c2[C@H]2C[C@@H]1c1nc3ccc(-c4cnc([C@]5(O)C[C@@](C)(O)C5)nc4)cc3n12 [Comp. Ex #6, reference compound]
82

// lookup Emax for CN1C(=O)c2cccc(OC(F)F)c2[C@H]2C[C@@H]1c1nc3ccc(-c4cnc(C5(O)CCOCC5)nc4)cc3n12 [Comp. Ex #3, reference compound]
70

* * *

# test-target: TNFα (Homo sapiens)
# test-name: HEK-Blue hTNFα reporter assay
# Assay type: cell-based
# Parameters: purchased R&D biosystem (R&D Systems) 210-TA-020/CF
# experimental-conditions: HEK-Blue hTNFα reporter cells, SEAP readout; read-out: IC50 Range
measure-name: IC50

Give TNFα (Homo sapiens) IC50 for CN1C(=O)c2cccc(OC(F)F)c2[C@H]2C[C@@H]1c1nn3ccc(-c4cnc(N5CCOCC5)nc4)cc3c12
< 25 nM

Give TNFα (Homo sapiens) IC50 for CN1C(=O)c2cccc(OC(F)F)c2[C@H]2C[C@@H]1c1nn3ccc(-c4cnc([C@@](O)(CC#N)C(F)F)nc4)cc3c12
< 25 nM

Give TNFα (Homo sapiens) IC50 for [2H]C([2H])([2H])N1C(=O)c2cccc(OC(F)F)c2[C@H]2C[C@@H]1c1nn3ccc(-c4cnc([C@]5(N)C[C@@](C)(C#N)C5)nc4C)cc3c12
< 25 nM

Give TNFα (Homo sapiens) IC50 for CN1C(=O)c2cccc(OC(F)F)c2[C@H]2C[C@@H]1c1nn3ccc(-c4cnc([C@]5(O)C[C@@](C)(O)C5)nc4)cc3c12
< 25 nM

Give TNFα (Homo sapiens) IC50 for CN1C(=O)c2cccc(OC(F)F)c2[C@H]2C[C@@H]1c1nn3cnc(-c4ccc(P(C)(C)=O)nc4)cc3c12
< 25 nM

Give TNFα (Homo sapiens) IC50 for [2H]C([2H])([2H])N1C(=O)c2cccc(C#N)c2[C@H]2C[C@@H]1c1nn3cc(F)c(-c4cnc([C@]5(N)C[C@@](C)(C#N)C5)nc4)nc3c12
25 to 100 nM

* * *

# test-target: TNFα (Homo sapiens, UniProt P01375)
# test-name: HEK-Blue hTNFα reporter assay
# Type: cell-based
# Parameters: purchased R&D biosystem (R&D Systems) 210-TA-020/CF
# experimental-conditions: HEK-Blue hTNFα reporter cells, SEAP readout; read-out: IC50 Range
measure-name: IC50

// lookup IC50 for [2H]C([2H])([2H])N1C(=O)c2cccc(OC(F)F)c2[C@H]2C[C@@H]1c1nn3cc(F)c(-c4cnc([C@]5(N)C[C@@](C)(O)C5)cn4)cc3c12 [Example 214]
< 0.025 µM

// lookup IC50 for [2H]C([2H])([2H])N1C(=O)c2cccc(OC)c2[C@H]2C[C@@H]1c1nn3ccc(-c4cnc(C5(N)CCC5)nc4)cc3c12 [Example 251]
< 0.025 µM

// lookup IC50 for CN1C(=O)c2cccc(OC(F)F)c2[C@H]2C[C@@H]1c1nn3ccc(-c4cnc([C@]5(N)C[C@@](C)(O)C5)c(F)c4)cc3c12 [Example 40]
< 0.025 µM

// lookup IC50 for CN1C(=O)c2cccc(OC(F)F)c2[C@H]2C[C@@H]1c1nn3ccc(-c4cnc([C@@H](O)C5COC5)nc4)cc3c12 [Example 136]
< 0.025 µM

// lookup IC50 for CN1C(=O)c2cccc(OC(F)F)c2[C@H]2C[C@@H]1c1nn3cc(F)c(-c4cnc(P(C)(C)=O)cn4)cc3c12 [Example 128]
< 0.025 µM

// lookup IC50 for [2H]C([2H])([2H])N1C(=O)c2cccc(OC(F)F)c2[C@H]2C[C@@H]1c1nn3cc(F)c(-c4cnc([C@]5(N)C[C@@](C)(C#N)C5)nc4)cc3c12 [Example 240]
< 0.025 µM

// lookup IC50 for CN1C(=O)c2cccc(OC(F)F)c2[C@H]2C[C@@H]1c1nn3ccc(-c4cnc([C@]5(O)C[C@@](C)(O)C5)cn4)cc3c12 [Example 42]
< 0.025 µM

// lookup IC50 for [2H]C([2H])([2H])N1C(=O)c2ccc(F)c(OC(F)F)c2[C@H]2C[C@@H]1c1nn3ccc(-c4cnc(C(C)(C)N)nc4)nc3c12 [Example 297]
< 0.025 µM

// lookup IC50 for CN1C(=O)c2cccc(OC(F)F)c2[C@H]2C[C@@H]1c1nn3cnc(-c4cnc(C5(N)CC(F)(F)C5)nc4)cc3c12 [Example 146]
< 0.025 µM

// lookup IC50 for CN1C(=O)c2ccc(F)c(OC(F)F)c2[C@H]2C[C@@H]1c1nn3ccc(-c4ccc(P(C)(C)=O)nc4)cc3c12 [Example 34]
< 0.025 µM

// lookup IC50 for [2H]C([2H])([2H])N1C(=O)c2cccc(OC(F)F)c2[C@H]2C[C@@H]1c1nn3ccc(-c4cnc([C@]5(C#N)C[C@](C)(N)C5)c(F)c4)cc3c12 [Example 293]
< 0.025 µM

// lookup IC50 for CN1C(=O)c2cccc(OC(F)F)c2[C@H]2C[C@@H]1c1nn3cc(F)c(-c4cnc([C@@](C)(O)CO)nc4)cc3c12 [Example 115]
< 0.025 µM

// lookup IC50 for CN1C(=O)c2cccc(OC(F)F)c2[C@H]2C[C@@H]1c1nn3ccc(-c4ccc(P(C)(C)=O)nc4)cc3c12 [Example 20]
< 0.025 µM

// lookup IC50 for CN1C(=O)c2cccc(OC(F)F)c2[C@H]2C[C@@H]1c1nn3ccc(-c4ccc(P(C)(C)=O)cn4)cc3c12 [Example 122]
< 0.025 µM

// lookup IC50 for CN1C(=O)c2cccc(OC(F)F)c2[C@H]2C[C@@H]1c1nn3ccc(-c4ncc([C@H](O)[C@@H]5CCO5)cn4)cc3c12 [Example 131]
< 0.025 µM

// lookup IC50 for CN1C(=O)c2cccc(OC(F)F)c2[C@H]2C[C@@H]1c1nn3cc(F)c(-c4cnc(P(C)(C)=O)c(F)c4)cc3c12 [Example 39]
< 0.025 µM

// lookup IC50 for CN1C(=O)c2cccc(C#N)c2[C@H]2C[C@@H]1c1nn3ccc(-c4ccc(P(C)(C)=O)nc4)cc3c12 [Example 303]
< 0.025 µM

// lookup IC50 for CN1C(=O)c2cccc(OC(F)F)c2[C@H]2C[C@@H]1c1nn3ccc(-c4cnc(N5CCN(CCO)CC5)nc4)cc3c12 [Example 145]
< 0.025 µM

// lookup IC50 for C[C@]1(O)C[C@](N)(c2ncc(-c3nc4c5c(nn4cc3F)[C@H]3C[C@@H]5c4c(OC(F)F)cccc4C(=O)N3)cn2)C1 [Example 223]
< 0.025 µM

// lookup IC50 for CN1C(=O)c2cccc(OC(F)F)c2[C@H]2C[C@@H]1c1nn3ccc(-c4ncc([C@H](O)[C@H]5CCO5)cn4)cc3c12 [Example 132]
< 0.025 µM

// lookup IC50 for CC(=O)N1CCN(c2ncc(-c3ccn4nc5c(c4c3)[C@@H]3C[C@H]5N(C)C(=O)c4cccc(OC(F)F)c43)cn2)CC1 [Example 148]
< 0.025 µM

// lookup IC50 for [2H]C([2H])([2H])N1C(=O)c2cccc(OC(F)F)c2[C@H]2C[C@@H]1c1nn3ccc(-c4cnc5c(c4)CC[C@]5(C)N)cc3c12 [Example 327]
< 0.025 µM

// lookup IC50 for [2H]C([2H])([2H])N1C(=O)c2cccc(C#N)c2[C@H]2C[C@@H]1c1nn3ccc(-c4cnc([C@]5(N)C[C@@](C)(C#N)C5)nc4)nc3c12 [Example 301]
< 0.025 µM

// lookup IC50 for [2H]C([2H])([2H])N1C(=O)c2cccc(OC(F)F)c2[C@H]2C[C@@H]1c1nn3cc(F)c(-c4cnc([C@]5(N)C[C@@](C)(O)C5)nc4)cc3c12 [Example 267]
< 0.025 µM

Reference for the values: patent US12410179B2
